target: T1, recombinant human CSF-1R (form not stated) (human, UniProt P07333 20-512, limits assumed); assay: BIAcore, humanisation stage, crude cell supernatant
T1 construct: for the ELISA no species is stated; also called recombinant CSF-1R; recombinant CSF-1R protein
T1 sequence (P07333 20-512 limits assumed): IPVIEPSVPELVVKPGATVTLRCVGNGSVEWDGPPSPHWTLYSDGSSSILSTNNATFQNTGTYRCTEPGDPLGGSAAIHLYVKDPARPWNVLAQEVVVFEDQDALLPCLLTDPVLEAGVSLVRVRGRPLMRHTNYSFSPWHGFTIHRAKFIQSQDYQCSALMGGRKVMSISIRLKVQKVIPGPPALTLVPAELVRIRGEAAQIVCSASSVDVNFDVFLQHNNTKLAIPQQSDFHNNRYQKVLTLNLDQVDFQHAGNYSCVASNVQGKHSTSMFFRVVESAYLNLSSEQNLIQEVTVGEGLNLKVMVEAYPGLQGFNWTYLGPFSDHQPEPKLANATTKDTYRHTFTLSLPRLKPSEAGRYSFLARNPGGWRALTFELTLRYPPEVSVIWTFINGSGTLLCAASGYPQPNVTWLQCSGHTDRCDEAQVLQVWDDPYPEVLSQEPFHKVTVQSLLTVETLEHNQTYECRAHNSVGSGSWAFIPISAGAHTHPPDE
Assign Kd to each entry below.
Form entry: value (pM) — number only.

Data request: What measured Kd goes with 969gH1gL5 (antibody, human IgG4 S228P, kappa, name in Kabat numbering, V domains shown, Humanised IgG4 (S241P)/kappa; positions are Kabat) VH: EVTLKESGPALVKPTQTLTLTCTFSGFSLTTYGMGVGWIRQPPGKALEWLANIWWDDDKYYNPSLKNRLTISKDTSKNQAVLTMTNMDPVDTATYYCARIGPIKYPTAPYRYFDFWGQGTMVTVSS VL: DIQMTQSPSSLSASVGDRVTITCLASEDIYDNLAWYQQKPGKAPKLLIYYASSLQDGVPSRFSGSGSGTDFTLTISSLQPEDFATYFCLQDSEYPWTFGGGTKVEIKR ?
Data returned: 6.6

Data request: What measured Kd goes with 969gH1gL3 (antibody, human IgG4 S228P, kappa, name in Kabat numbering, V domains shown, Humanised IgG4 (S241P)/kappa; positions are Kabat) VH: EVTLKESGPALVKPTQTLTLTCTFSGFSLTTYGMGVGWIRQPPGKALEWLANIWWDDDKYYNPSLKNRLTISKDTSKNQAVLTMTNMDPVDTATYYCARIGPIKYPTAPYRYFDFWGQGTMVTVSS VL: DIQMTQSPSSLSASVGDRVTITCLASEDIYDNLAWYQKKPGKAPKLLIYYASSLQDGVPSRFSGSGSGTDFTLTISSLQPEDFATYFCLQDSEYPWTFGGGTKVEIKR ?
Data returned: 2.8

Data request: What measured Kd goes with 969gH2gL4 (antibody, human IgG4 S228P, kappa, name in Kabat numbering, V domains shown, Humanised IgG4 (S241P)/kappa; positions are Kabat; also called Ab969.g7) VH: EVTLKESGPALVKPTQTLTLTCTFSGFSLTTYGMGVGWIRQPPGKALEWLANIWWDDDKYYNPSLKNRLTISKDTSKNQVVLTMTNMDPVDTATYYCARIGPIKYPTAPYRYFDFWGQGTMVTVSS VL: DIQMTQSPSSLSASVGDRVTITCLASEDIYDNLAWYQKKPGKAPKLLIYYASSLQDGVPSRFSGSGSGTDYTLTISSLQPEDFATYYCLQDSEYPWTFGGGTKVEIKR ?
Data returned: 4.4

FYI, the data here is from patent US20180162947A1.
